# Tested on: A. pullulans (Ap)
# test-summary: microbe, parasite or virus in culture
# Format: cell-based, Aurobasidium pollulans
# settings: 48 h
Where a SMILES comes first, the peptide text is derived from it. Bridges are numbered along the chain shown (N, C = ends). The star is where a group is joined. Lauroyl = CCCCCCCCCCCC(=O)*; Octanoyl = CCCCCCCC(=O)*

- molecule: "CCCCCCCCCCCC(=O)N[C@H]1CSSC[C@@H](C(=O)N[C@@H](CCCCN)C(=O)N[C@@H](CC(C)C)C(N)=O)NC(=O)[C@H](CCCCN)NC(=O)[C@H](Cc2c[nH]c3ccccc23)NC(=O)CNC(=O)[C@H](Cc2c[nH]c3ccccc23)NC(=O)[C@H](Cc2c[nH]c3ccccc23)NC(=O)[C@H](CCCCN)NC(=O)[C@H](CCCCN)NC(=O)CNC1=O [Peptide C12-cTurg-2, C12- (CGKKWWGWKC)KL-NH2] (Lauroyl-CGKKWWGWKCKL-NH2; disulfide 1-10)"
  Antimicrobial Activity (MIC) Fungi Ap, µg/mL: 32
- molecule: "CCCCCCCCCCCC(=O)N[C@H]1CSSC[C@@H](C(=O)N[C@@H](CCCNC(=N)N)C(=O)N[C@@H](CC(C)C)C(N)=O)NC(=O)[C@H](CCCNC(=N)N)NC(=O)[C@H](Cc2c[nH]c3ccccc23)NC(=O)[C@H](Cc2c[nH]c3ccccc23)NC(=O)CNC(=O)[C@H](Cc2c[nH]c3ccccc23)NC(=O)[C@H](CCCNC(=N)N)NC(=O)[C@H](CCCNC(=N)N)NC(=O)CNC1=O [Peptide C12-cTurg-6, C12- (CGRRWGWWRC)RL-NH2] (Lauroyl-CGRRWGWWRCRL-NH2; disulfide 1-10)"
  Antimicrobial Activity (MIC) Fungi Ap, µg/mL: 64
- molecule: "CCCCCCCCCCCC(=O)N[C@@H](CS)C(=O)NCC(=O)N[C@@H](CCCCN)C(=O)N[C@@H](CCCCN)C(=O)N1CCC[C@H]1C(=O)NCC(=O)NCC(=O)N[C@@H](Cc1c[nH]c2ccccc12)C(=O)N[C@@H](CCCCN)C(=O)N[C@@H](CS)C(=O)N[C@@H](CCCCN)C(=O)N[C@@H](CC(C)C)C(N)=O [Peptide C12-Turg-1, C12- CGKKPGGWKC KL-NH2] (Lauroyl-CGKKPGGWKCKL-NH2)"
  Antimicrobial Activity (MIC) Fungi Ap, µg/mL: 32
- molecule: "CC(C)C[C@H](NC(=O)[C@H](CCCNC(=N)N)NC(=O)[C@@H]1CSSC[C@H](N)C(=O)NCC(=O)N[C@@H](CCCNC(=N)N)C(=O)N[C@@H](CCCNC(=N)N)C(=O)N[C@@H](Cc2c[nH]c3ccccc23)C(=O)NCC(=O)N[C@@H](Cc2c[nH]c3ccccc23)C(=O)N[C@@H](Cc2c[nH]c3ccccc23)C(=O)N[C@@H](CCCNC(=N)N)C(=O)N1)C(N)=O [cTurg-6] (H-CGRRWGWWRCRL-NH2; disulfide 1-10; N-terminus assumed)"
  Antimicrobial Activity (MIC) Fungi Ap, µg/mL: 32
- molecule: "CCCCCCCC(=O)N[C@H]1CSSC[C@@H](C(=O)N[C@@H](CCCCN)C(=O)N[C@@H](CC(C)C)C(N)=O)NC(=O)[C@H](CCCCN)NC(=O)[C@H](Cc2c[nH]c3ccccc23)NC(=O)CNC(=O)[C@H](Cc2c[nH]c3ccccc23)NC(=O)[C@H](Cc2c[nH]c3ccccc23)NC(=O)[C@H](CCCCN)NC(=O)[C@H](CCCCN)NC(=O)CNC1=O [Peptide C8-cTurg-2, C8- (CGKKWWGWKC)KL-NH2] (Octanoyl-CGKKWWGWKCKL-NH2; disulfide 1-10)"
  Antimicrobial Activity (MIC) Fungi Ap, µg/mL: 16
